- test_description: in vitro
- condition_info: human
What CC50 was measured for each of the following?
Numbers only, in µM.

See these solved cases before continuing.
| molecule | numeric_result |
| --- | --- |
| CCN(CC)CCOc1ccc2c(c1)C(=O)c1cc(OCCN(CC)CC)ccc1-2 | 111 |
| COc1ccc2nc3cc(Cl)ccc3c(Nc3cc(CN4CCCC4)c(O)c(CN4CCCC4)c3)c2n1 | 51.6 |

// moving on: another record for CC50
Using the record for CCN(CC)CCCC(C)Nc1c2ccc(Cl)cc2nc2ccc(OC)cc12 (stereo not drawn) , report its CC50. 229

----------
- Tested on: SARS-CoV-2
- test_description: microbe, parasite or virus in culture
- Type: cell-based
- condition_info: Severe acute respiratory syndrome coronavirus 2, Calu-3, 48 h
reported_endpoint: IC50

Using the record for CCN(CC)CCOc1ccc2c(c1)C(=O)c1cc(OCCN(CC)CC)ccc1-2 , report its IC50. ~9 µM
